tested on: Escherichia coli TOP10; assay: shrunken log2 fold change of peptide-encoding DNA abundance (4.5 h post-induction vs induction); higher = less antimicrobial activity (less host growth inhibition); conditions: time post-induction: 4.5 h; library: site-saturation at positions 5, 18, 19, 20
ENDPOINT LABEL: shrunken log2 fold change
Reply with just the number.

Query the reported shrunken log2 fold change for Escherichia coli TOP10; item: RRIRQRPPRLPRPRPRPNPAPRP
0.17

Query the reported shrunken log2 fold change for Escherichia coli TOP10; item: RRIRNRPPRLPRPRPRPTLWPRP
0.326

Query the reported shrunken log2 fold change for Escherichia coli TOP10; item: RRIRMRPPRLPRPRPRPNYNPRP
-0.678

Query the reported shrunken log2 fold change for Escherichia coli TOP10; item: RRIRFRPPRLPRPRPRPEFCPRP
0.139

Query the reported shrunken log2 fold change for Escherichia coli TOP10; item: RRIRCRPPRLPRPRPRPMIFPRP
-0.369

* * *

tested on: Escherichia coli TOP10; test: shrunken log2 fold change of peptide-encoding DNA abundance (4.5 h post-induction vs induction); higher = less antimicrobial activity (less host growth inhibition); conditions: time post-induction: 4.5 h; library: site-saturation at positions 5, 18, 19, 20
ENDPOINT LABEL: shrunken log2 fold change
Reply with just the number.

Recorded results for 6 sequences are shown here.
RRIRYRPPRLPRPRPRPRAQPRP	0.174
RRIRIRPPRLPRPRPRPCPLPRP	-0.751
RRIRKRPPRLPRPRPRPFNEPRP	0.0442
RRIRYRPPRLPRPRPRPNYQPRP	-0.79
RRIRYRPPRLPRPRPRPFAMPRP	-0.844
RRIRPRPPRLPRPRPRPYNPPRP	-0.84

Kindly consider the entry below.
shrunken log2 fold change for RRIRCRPPRLPRPRPRPTVIPRP ?
-0.907

* * *

system: Escherichia coli TOP10; experiment: shrunken log2 fold change of peptide-encoding DNA abundance (4.5 h post-induction vs induction); higher = less antimicrobial activity (less host growth inhibition); conditions: time post-induction: 4.5 h; library: site-saturation at positions 5, 18, 19, 20
shrunken log2 fold change for assorted sequences
Reply with just the number.

Recorded results for 2 sequences are shown here.
RRIRARPPRLPRPRPRPGSRPRP	0.279
RRIRFRPPRLPRPRPRPPSWPRP	0.4

shrunken log2 fold change for RRIRYRPPRLPRPRPRPGDVPRP ?
-0.484

shrunken log2 fold change for RRIRLRPPRLPRPRPRPGYQPRP ?
-0.133

shrunken log2 fold change for RRIRKRPPRLPRPRPRPKGSPRP ?
0.436

shrunken log2 fold change for RRIRGRPPRLPRPRPRPATLPRP ?
0.393

shrunken log2 fold change for RRIRGRPPRLPRPRPRPQYGPRP ?
-0.008

shrunken log2 fold change for RRIRYRPPRLPRPRPRPWLWPRP ?
0.0662

shrunken log2 fold change for RRIRRRPPRLPRPRPRPARHPRP ?
0.447

shrunken log2 fold change for RRIRYRPPRLPRPRPRPAADPRP ?
-0.0866

shrunken log2 fold change for RRIRMRPPRLPRPRPRPYRDPRP ?
-0.018

shrunken log2 fold change for RRIRRRPPRLPRPRPRPGAVPRP ?
0.431

shrunken log2 fold change for RRIRSRPPRLPRPRPRPGDCPRP ?
0.0299

shrunken log2 fold change for RRIRQRPPRLPRPRPRPFSCPRP ?
-0.00804

shrunken log2 fold change for RRIRTRPPRLPRPRPRPTWYPRP ?
-0.0546

* * *

tested on: Escherichia coli TOP10; assay: shrunken log2 fold change of peptide-encoding DNA abundance (4.5 h post-induction vs induction); higher = less antimicrobial activity (less host growth inhibition); settings: time post-induction: 4.5 h; library: site-saturation at positions 5, 18, 19, 20
ENDPOINT LABEL: shrunken log2 fold change
Reply with just the number.

Recorded results for 5 sequences are shown here.
RRIRARPPRLPRPRPRPEHLPRP	0.108
RRIRLRPPRLPRPRPRPTTMPRP	-0.439
RRIRCRPPRLPRPRPRPNGTPRP	-0.0476
RRIRRRPPRLPRPRPRPPNNPRP	0.177
RRIRSRPPRLPRPRPRPARWPRP	0.224

Query the reported shrunken log2 fold change for Escherichia coli TOP10; item: RRIRSRPPRLPRPRPRPYIMPRP
-0.845

Query the reported shrunken log2 fold change for Escherichia coli TOP10; item: RRIRQRPPRLPRPRPRPRYVPRP
-0.215

Query the reported shrunken log2 fold change for Escherichia coli TOP10; item: RRIRMRPPRLPRPRPRPCPPPRP
0.106

Query the reported shrunken log2 fold change for Escherichia coli TOP10; item: RRIRGRPPRLPRPRPRPCLQPRP
0.264

* * *

test system: Escherichia coli TOP10; experiment: shrunken log2 fold change of peptide-encoding DNA abundance (4.5 h post-induction vs induction); higher = less antimicrobial activity (less host growth inhibition); conditions: time post-induction: 4.5 h; library: site-saturation at positions 5, 18, 19, 20
Label scheme for shrunken log2 fold change: lower than -0.03 is class 0, -0.03 and above is class 1.

RRIRIRPPRLPRPRPRPSSEPRP	class 0
RRIRWRPPRLPRPRPRPEQPPRP	class 1
RRIRPRPPRLPRPRPRPVHIPRP	class 0

State whether the measured shrunken log2 fold change reaches -0.03, counting equality as reaching it, for RRIRMRPPRLPRPRPRPFTKPRP
class 0

State whether the measured shrunken log2 fold change reaches -0.03, counting equality as reaching it, for RRIRERPPRLPRPRPRPHARPRP
class 1

State whether the measured shrunken log2 fold change reaches -0.03, counting equality as reaching it, for RRIRVRPPRLPRPRPRPTWGPRP
class 1

State whether the measured shrunken log2 fold change reaches -0.03, counting equality as reaching it, for RRIRDRPPRLPRPRPRPGHQPRP
class 1

State whether the measured shrunken log2 fold change reaches -0.03, counting equality as reaching it, for RRIRDRPPRLPRPRPRPCRNPRP
class 1

State whether the measured shrunken log2 fold change reaches -0.03, counting equality as reaching it, for RRIRDRPPRLPRPRPRPSMVPRP
class 0

State whether the measured shrunken log2 fold change reaches -0.03, counting equality as reaching it, for RRIRARPPRLPRPRPRPSACPRP
class 1

State whether the measured shrunken log2 fold change reaches -0.03, counting equality as reaching it, for RRIRQRPPRLPRPRPRPNCGPRP
class 1

State whether the measured shrunken log2 fold change reaches -0.03, counting equality as reaching it, for RRIRLRPPRLPRPRPRPWQQPRP
class 1

State whether the measured shrunken log2 fold change reaches -0.03, counting equality as reaching it, for RRIRYRPPRLPRPRPRPTFLPRP
class 0

State whether the measured shrunken log2 fold change reaches -0.03, counting equality as reaching it, for RRIRQRPPRLPRPRPRPTHYPRP
class 1

State whether the measured shrunken log2 fold change reaches -0.03, counting equality as reaching it, for RRIRRRPPRLPRPRPRPIKIPRP
class 0

State whether the measured shrunken log2 fold change reaches -0.03, counting equality as reaching it, for RRIRKRPPRLPRPRPRPCQGPRP
class 0

State whether the measured shrunken log2 fold change reaches -0.03, counting equality as reaching it, for RRIRPRPPRLPRPRPRPIGAPRP
class 1

* * *

system: Escherichia coli TOP10; experiment: shrunken log2 fold change of peptide-encoding DNA abundance (4.5 h post-induction vs induction); higher = less antimicrobial activity (less host growth inhibition); settings: time post-induction: 4.5 h; library: site-saturation at positions 5, 18, 19, 20
ENDPOINT LABEL: shrunken log2 fold change
Reply with just the number.

RRIRWRPPRLPRPRPRPQYQPRP	-0.268

shrunken log2 fold change for RRIRARPPRLPRPRPRPEQNPRP ?
0.928

shrunken log2 fold change for RRIRTRPPRLPRPRPRPMYVPRP ?
0.0319

* * *

tested on: Escherichia coli TOP10; test: shrunken log2 fold change of peptide-encoding DNA abundance (4.5 h post-induction vs induction); higher = less antimicrobial activity (less host growth inhibition); settings: time post-induction: 4.5 h; library: site-saturation at positions 5, 18, 19, 20;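 also: peptides expressed intracellularly from a pBAD plasmid library in pooled LB shake-flask culture, induced with 0.3% L-arabinose, DNA abundance read by NGS, three biological replicates, DESeq2 with apeglm shrinkage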
shrunken log2 fold change for assorted sequences
Reply with just the number.

Recorded results for 8 sequences are shown here.
RRIRNRPPRLPRPRPRPDFNPRP	-0.186
RRIRDRPPRLPRPRPRPIPRPRP	-0.187
RRIRPRPPRLPRPRPRPNMGPRP	-0.202
RRIRVRPPRLPRPRPRPDCGPRP	-0.0382
RRIRWRPPRLPRPRPRPIWWPRP	0.314
RRIRDRPPRLPRPRPRPAYWPRP	-0.0729
RRIRFRPPRLPRPRPRPDDWPRP	0.044
RRIRFRPPRLPRPRPRPLSQPRP	-0.271

shrunken log2 fold change for RRIRARPPRLPRPRPRPYTLPRP ?
-0.213

shrunken log2 fold change for RRIRNRPPRLPRPRPRPFGRPRP ?
-0.0535

shrunken log2 fold change for RRIRIRPPRLPRPRPRPFVQPRP ?
-0.634

shrunken log2 fold change for RRIRRRPPRLPRPRPRPAREPRP ?
0.925

shrunken log2 fold change for RRIRIRPPRLPRPRPRPHCIPRP ?
-2.92

shrunken log2 fold change for RRIRSRPPRLPRPRPRPTGHPRP ?
-0.0852

shrunken log2 fold change for RRIRVRPPRLPRPRPRPQWGPRP ?
-0.149
